# credit: patent US7442802B2

Assign inhibition at 10 µM to each entry below.
Biological target: COX-2 (Homo sapiens, UniProt P35354)
Construct: To induce COX-2, lipopolysaccharide (LPS) from E. coli; endogenous in cells; host or cells: heparinised human whole blood from donors, with COX-2 induced by E. coli LPS
Sequence (P35354 18-604): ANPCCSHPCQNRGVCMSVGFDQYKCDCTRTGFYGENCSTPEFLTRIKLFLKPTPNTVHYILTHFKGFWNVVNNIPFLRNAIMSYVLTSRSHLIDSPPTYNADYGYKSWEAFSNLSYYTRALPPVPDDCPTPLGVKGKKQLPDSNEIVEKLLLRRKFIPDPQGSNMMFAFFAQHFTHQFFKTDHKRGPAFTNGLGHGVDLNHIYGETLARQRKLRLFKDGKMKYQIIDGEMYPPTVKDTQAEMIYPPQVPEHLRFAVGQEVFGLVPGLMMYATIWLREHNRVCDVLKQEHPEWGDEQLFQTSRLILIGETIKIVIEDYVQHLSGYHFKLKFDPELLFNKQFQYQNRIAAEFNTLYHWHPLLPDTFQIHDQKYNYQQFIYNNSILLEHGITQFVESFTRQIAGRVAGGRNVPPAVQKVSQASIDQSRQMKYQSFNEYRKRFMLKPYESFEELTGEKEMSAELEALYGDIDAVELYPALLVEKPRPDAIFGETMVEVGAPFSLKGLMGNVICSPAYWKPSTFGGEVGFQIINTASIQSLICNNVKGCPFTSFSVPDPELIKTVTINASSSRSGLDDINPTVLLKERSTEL
Assay: Human COX-2 enzyme activity in human whole blood (LPS-induced, thromboxane B2 EIA)
Type: cell-based
Conditions: 10 μM; human whole blood; LPS induction; read-out: COX-2 Inhibition (% at 10 μM)
Respond numerically; units are % and should not be typed.

Provide inhibition at 10 µM value for the following molecule: CS(=O)(=O)c1ccc(-c2cc(CO)nn2C2CCCCCC2)cc1
25

Provide inhibition at 10 µM value for the following molecule: CS(=O)(=O)c1ccc(-c2cc(C(=O)CCCO[N+](=O)[O-])nn2C2CCCCC2)cc1
80

Provide inhibition at 10 µM value for the following molecule: CS(=O)(=O)c1ccc(-c2cc(C(=O)CCCO[N+](=O)[O-])nn2-c2ccc(F)cc2)cc1 [Example 13e]
100

Provide inhibition at 10 µM value for the following molecule: CS(=O)(=O)c1ccc(-c2cc(COc3cccc(CO[N+](=O)[O-])c3)nn2C2CCCCC2)cc1 [Example 17d]
25

Provide inhibition at 10 µM value for the following molecule: CS(=O)(=O)c1ccc(-c2cc(C(=O)CCCO)nn2-c2ccc(Cl)cc2)cc1 [Example 44d]
60

Provide inhibition at 10 µM value for the following molecule: CS(=O)(=O)c1ccc(-c2cc(C(=O)CCCCCO)nn2C2CCCCC2)cc1 [Example 22c]
80

Provide inhibition at 10 µM value for the following molecule: CS(=O)(=O)c1ccc(-c2cc(COCCCO[N+](=O)[O-])nn2-c2ccc(Cl)cc2)cc1
100

Provide inhibition at 10 µM value for the following molecule: CS(=O)(=O)c1ccc(-c2cc(/C=C/CCO[N+](=O)[O-])nn2C2CCCCC2)cc1 [Example 21c]
90

Provide inhibition at 10 µM value for the following molecule: NS(=O)(=O)c1ccc(-c2c(-c3ccccc3)noc2COCC(F)(F)CO)cc1 [Example 32c]
75

Provide inhibition at 10 µM value for the following molecule: CS(=O)(=O)c1ccc(-c2cc(C(=O)CCCO)nn2C2CCCCC2)cc1
90

Provide inhibition at 10 µM value for the following molecule: CS(=O)(=O)c1ccc(-c2cc(COCCCO[N+](=O)[O-])nn2C2CCCCC2)cc1 [Example 16c]
85

Provide inhibition at 10 µM value for the following molecule: CS(=O)(=O)c1ccc(-c2cc(COCCCO[N+](=O)[O-])nn2-c2ccc(C(F)(F)F)cc2)cc1
100

Provide inhibition at 10 µM value for the following molecule: COc1ccc(-n2nc(C(=O)CCCO)cc2-c2ccc(S(C)(=O)=O)cc2)cc1 [Example 24d]
85

Provide inhibition at 10 µM value for the following molecule: CS(=O)(=O)c1ccc(-c2cc(CCCC(=O)OCCCO[N+](=O)[O-])nn2-c2ccc(C(F)(F)F)cc2)cc1 [Example 47f]
65

Provide inhibition at 10 µM value for the following molecule: NS(=O)(=O)c1ccc(-c2cc(C(=O)CCCO)nn2C2CCCCC2)cc1 [Example 43g]
10

Provide inhibition at 10 µM value for the following molecule: CS(=O)(=O)c1ccc(-c2[nH]nc(C(=O)CCCO[N+](=O)[O-])c2-c2ccc(C#N)cc2)cc1 [Example 42e]
55

Provide inhibition at 10 µM value for the following molecule: CS(=O)(=O)c1ccc(-c2cc(COCCCO)nn2C2CCCCC2)cc1 [Example 16b]
55

Provide inhibition at 10 µM value for the following molecule: CS(=O)(=O)c1ccc(-c2cc(CO[N+](=O)[O-])nn2C2CCCCCC2)cc1
90

Provide inhibition at 10 µM value for the following molecule: COc1ccc(-n2nc(COCCCO)cc2-c2ccc(S(C)(=O)=O)cc2)cc1 [Example 10d]
100

Provide inhibition at 10 µM value for the following molecule: CS(=O)(=O)c1ccc(-c2cc(COCCCO)nn2-c2ccccc2)cc1
80

Provide inhibition at 10 µM value for the following molecule: CS(=O)(=O)c1ccc(-c2cc(COCCCO)nn2-c2ccc(F)cc2)cc1 [Example 18d]
90

Provide inhibition at 10 µM value for the following molecule: CS(=O)(=O)c1ccc(-c2cc(COCCCO)nn2-c2ccc(Cl)cc2)cc1
95

Provide inhibition at 10 µM value for the following molecule: CC(CCOCc1cc(-c2ccc(S(C)(=O)=O)cc2)n(-c2ccccc2)n1)O[N+](=O)[O-] (centres unmarked) [Example 19c]
30

Provide inhibition at 10 µM value for the following molecule: CS(=O)(=O)c1ccc(-c2cc(CNCCO)nn2C2CCCCC2)cc1 [Example 38c]
25

Provide inhibition at 10 µM value for the following molecule: CS(=O)(=O)c1ccc(-c2cc(/C=C\CCO[N+](=O)[O-])nn2C2CCCCC2)cc1
95

Provide inhibition at 10 µM value for the following molecule: NS(=O)(=O)c1ccc(-c2c(-c3ccccc3)noc2COCCS(=O)(=O)CCO)cc1 [Example 37b]
90

Provide inhibition at 10 µM value for the following molecule: CS(=O)(=O)c1ccc(-c2cc(C(=O)CCCO)nn2-c2ccc(F)cc2)cc1 [Example 13d]
25

Provide inhibition at 10 µM value for the following molecule: NS(=O)(=O)c1ccc(-c2cc(C(=O)CCCO[N+](=O)[O-])nn2C2CCCCC2)cc1 [Example 43h]
20

Provide inhibition at 10 µM value for the following molecule: CS(=O)(=O)c1ccc(-c2cc(COCCCO[N+](=O)[O-])nn2-c2ccccc2)cc1
85

Provide inhibition at 10 µM value for the following molecule: CS(=O)(=O)c1ccc(-c2cc(C(=O)CCCO)nn2-c2ccc(C(F)(F)F)cc2)cc1 [Example 23d]
10

Provide inhibition at 10 µM value for the following molecule: CS(=O)(=O)c1ccc(-c2cc(/C=C/CO[N+](=O)[O-])nn2C2CCCCC2)cc1
45

Provide inhibition at 10 µM value for the following molecule: CS(=O)(=O)c1ccc(-c2cc(C(=O)CCCO[N+](=O)[O-])nn2-c2ccc(C(F)(F)F)cc2)cc1 [Example 23e]
100

====

Assign melting point to each entry below.

Provide melting point value for the following molecule: CS(=O)(=O)c1ccc(-c2cc(C(=O)CCCO[N+](=O)[O-])nn2C2CCCCC2)cc1
122 to 124 °C

Provide melting point value for the following molecule: CS(=O)(=O)c1ccc(-c2[nH]nc(C(=O)CCCO[N+](=O)[O-])c2-c2ccc(C#N)cc2)cc1 [Example 42e]
148 to 149 °C

Provide melting point value for the following molecule: CS(=O)(=O)c1ccc(-c2cc(C(=O)CCCO[N+](=O)[O-])nn2-c2ccc(Cl)cc2)cc1 [Example 44e]
131 to 132 °C

Provide melting point value for the following molecule: NS(=O)(=O)c1ccc(-c2c(-c3ccccc3)noc2COCC(F)(F)C(F)(F)CO[N+](=O)[O-])cc1 [Example 33b]
46 °C

Provide melting point value for the following molecule: CS(=O)(=O)c1ccc(-c2cc(CCCO[N+](=O)[O-])nn2C2CCCCC2)cc1 [Example 31e]
77 °C

Provide melting point value for the following molecule: CS(=O)(=O)c1ccc(-c2cc(C(=O)CCCO[N+](=O)[O-])nn2-c2ccc(Br)cc2)cc1 [Example 14e]
150 to 152 °C

Provide melting point value for the following molecule: CS(=O)(=O)c1ccc(-c2cc(CO[N+](=O)[O-])nn2C2CCCCCC2)cc1
119 to 120 °C

====

target: COX-1 (Homo sapiens, UniProt P23219); construct: endogenous in cells; host or cells: heparinised human whole blood from donors, stimulated with the calcium ionophore A23187; assay: Human COX-1 enzyme activity in human whole blood (A23187-stimulated, thromboxane B2 EIA); assay type: cell-based; details: 100 μM; human whole blood; A23187 stimulation; read-out: COX-1 Inhibition (% at 100 μM)
Sequence (P23219 24-599): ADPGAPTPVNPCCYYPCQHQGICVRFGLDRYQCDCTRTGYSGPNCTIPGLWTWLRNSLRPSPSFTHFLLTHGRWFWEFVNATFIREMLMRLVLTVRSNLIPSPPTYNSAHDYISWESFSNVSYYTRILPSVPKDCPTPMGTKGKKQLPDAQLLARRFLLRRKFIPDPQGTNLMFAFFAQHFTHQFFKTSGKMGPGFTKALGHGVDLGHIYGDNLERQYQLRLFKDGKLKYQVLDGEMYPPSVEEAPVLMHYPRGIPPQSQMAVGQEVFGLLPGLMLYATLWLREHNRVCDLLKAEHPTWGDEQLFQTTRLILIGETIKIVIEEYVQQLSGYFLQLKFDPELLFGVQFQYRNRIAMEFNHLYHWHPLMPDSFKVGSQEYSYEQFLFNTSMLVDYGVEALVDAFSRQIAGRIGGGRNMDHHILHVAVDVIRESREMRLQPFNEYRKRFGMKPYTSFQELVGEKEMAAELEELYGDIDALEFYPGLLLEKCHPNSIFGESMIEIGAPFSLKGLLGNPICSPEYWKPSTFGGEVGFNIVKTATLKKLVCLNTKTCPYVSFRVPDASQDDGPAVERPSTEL
Please use condition met whenever inhibition at 100 µM is not below 50%, and condition not met whenever it is.

Please tell me: is the compound CS(=O)(=O)c1ccc(-c2cc(C(=O)CCCO[N+](=O)[O-])nn2C2CCCCC2)cc1 at or over 50% in terms of inhibition at 100 µM?
condition not met

Please tell me: is the compound Cc1ccc(-n2nc(COCCCO)cc2-c2ccc(S(C)(=O)=O)cc2)cc1 at or over 50% in terms of inhibition at 100 µM?
condition met

Please tell me: is the compound CS(=O)(=O)c1ccc(-c2cc(C(=O)CCCO[N+](=O)[O-])nn2-c2ccc(Cl)cc2)cc1 [Example 44e] at or over 50% in terms of inhibition at 100 µM?
condition met

Please tell me: is the compound CS(=O)(=O)c1ccc(-c2cc(CCCC(=O)OCCCO[N+](=O)[O-])nn2-c2ccc(C(F)(F)F)cc2)cc1 [Example 47f] at or over 50% in terms of inhibition at 100 µM?
condition met

Please tell me: is the compound CS(=O)(=O)c1ccc(-c2cc(/C=C/CCO[N+](=O)[O-])nn2-c2ccccc2)cc1 [Example 11f] at or over 50% in terms of inhibition at 100 µM?
condition met

Please tell me: is the compound CS(=O)(=O)c1ccc(-c2cc(C(=O)CCCO[N+](=O)[O-])nn2-c2ccc(F)cc2)cc1 [Example 13e] at or over 50% in terms of inhibition at 100 µM?
condition not met

Please tell me: is the compound CS(=O)(=O)c1ccc(-c2cc(C(=O)CCCO)nn2-c2ccc(F)cc2)cc1 [Example 13d] at or over 50% in terms of inhibition at 100 µM?
condition not met

Please tell me: is the compound CS(=O)(=O)c1ccc(-c2cc(COCCCO)nn2-c2ccccc2)cc1 at or over 50% in terms of inhibition at 100 µM?
condition not met

Please tell me: is the compound CS(=O)(=O)c1ccc(-c2cc(COCCO[N+](=O)[O-])nn2C2CCCCC2)cc1 [Example 15e] at or over 50% in terms of inhibition at 100 µM?
condition not met

Please tell me: is the compound NS(=O)(=O)c1ccc(-c2c(-c3ccccc3)noc2COCC(F)(F)C(F)(F)CO[N+](=O)[O-])cc1 [Example 33b] at or over 50% in terms of inhibition at 100 µM?
condition met

Please tell me: is the compound CS(=O)(=O)c1ccc(-c2cc(CO[N+](=O)[O-])nn2C2CCCCCC2)cc1 at or over 50% in terms of inhibition at 100 µM?
condition not met

Please tell me: is the compound CS(=O)(=O)c1ccc(-c2cc(COCCCO[N+](=O)[O-])nn2-c2ccc(Cl)cc2)cc1 at or over 50% in terms of inhibition at 100 µM?
condition met

Please tell me: is the compound CS(=O)(=O)c1ccc(-c2cc(/C=C\CCO[N+](=O)[O-])nn2C2CCCCC2)cc1 at or over 50% in terms of inhibition at 100 µM?
condition not met

Please tell me: is the compound CS(=O)(=O)c1ccc(-c2cc(/C=C/CO[N+](=O)[O-])nn2C2CCCCC2)cc1 at or over 50% in terms of inhibition at 100 µM?
condition not met

Please tell me: is the compound CS(=O)(=O)c1ccc(-c2cc(C(=O)CCCO[N+](=O)[O-])nn2-c2ccc(Br)cc2)cc1 [Example 14e] at or over 50% in terms of inhibition at 100 µM?
condition met

Please tell me: is the compound Cc1ccc(-n2nc(C(=O)CCCO)cc2-c2ccc(S(C)(=O)=O)cc2)cc1 [Example 12d] at or over 50% in terms of inhibition at 100 µM?
condition not met

Please tell me: is the compound COc1ccc(-n2nc(COCCCO[N+](=O)[O-])cc2-c2ccc(S(C)(=O)=O)cc2)cc1 at or over 50% in terms of inhibition at 100 µM?
condition met

Please tell me: is the compound CS(=O)(=O)c1ccc(-c2cc(C(=O)CCCO[N+](=O)[O-])nn2-c2ccc(C(F)(F)F)cc2)cc1 [Example 23e] at or over 50% in terms of inhibition at 100 µM?
condition not met

Please tell me: is the compound CS(=O)(=O)c1ccc(-c2cc(COCCCO[N+](=O)[O-])nn2-c2ccc(F)cc2)cc1 [Example 18e] at or over 50% in terms of inhibition at 100 µM?
condition met

Please tell me: is the compound COc1ccc(-n2nc(COCCCO)cc2-c2ccc(S(C)(=O)=O)cc2)cc1 [Example 10d] at or over 50% in terms of inhibition at 100 µM?
condition met

Please tell me: is the compound CS(=O)(=O)c1ccc(-c2cc(CNCCO)nn2C2CCCCC2)cc1 [Example 38c] at or over 50% in terms of inhibition at 100 µM?
condition not met

Please tell me: is the compound CS(=O)(=O)c1ccc(-c2cc(C(=O)CCCO)nn2C2CCCCC2)cc1 at or over 50% in terms of inhibition at 100 µM?
condition not met
